Where do these numbers come from? They come from paper PMC4912613.

- Tested on: Stage 5 gametocytes from P. falciparum NF54
- Protocol: Late-stage (stage V) gametocyte survival assay, MitoTracker
- Format: cell-based, Plasmodium falciparum
- Experimental Context: gametocyte EC50 / 3D7 EC50
Recorded Endpoint: EC50 fold shift compared to asexual stage: Stage 5 Gametocyte EC50

# annotated cases, reported EC50 fold shift compared to asexual stage: Stage 5 Gametocyte EC50 shown
Lookup: I'd like to know its EC50 fold shift compared to asexual stage: Stage 5 Gametocyte EC50. The molecule in question is O=C(Nc1ccccc1O)c1ccc(Oc2cccc(C(=O)Nc3ccccc3O)c2)cc1 [MMV665888]
Found: 2.46

Lookup: I'd like to know its EC50 fold shift compared to asexual stage: Stage 5 Gametocyte EC50. The molecule in question is COc1ccccc1CNC(=O)CCn1c(=O)[nH]c2ccsc2c1=O [MMV019066]
Found: > 0.7

Lookup: I'd like to know its EC50 fold shift compared to asexual stage: Stage 5 Gametocyte EC50. The molecule in question is COCCNCC(O)Cn1c2ccc(Cl)cc2c2cc(Cl)ccc21 (centres unmarked) [MMV019017]
Found: > 2.6

Below are some molecules; for each one, tell me its EC50 fold shift compared to asexual stage: Stage 5 Gametocyte EC50.
1. COc1ccc(N2CCN(C(CNC(=O)C3CCCCC3)c3ccc4c(c3)OCO4)CC2)cc1 (centres unmarked) [MMV019662]
2. COc1ccc(NC(=O)N2CCCCN3[C@H](CN)[C@H](c4ccc(C#Cc5ccccc5)cc4)[C@@H]3C2)cc1 [BRD1095]
3. Cc1c(C)n(Cc2ccc(F)cc2)c2ccc(C(=O)NCc3ccco3)cc12 [MMV008149]
4. Cc1cc(Nc2ccc(OCc3ccccc3)cc2)nc2cc(O)ccc12 [MMV007181]
5. CCN(CC)CCn1c(=N)n(CC(O)c2ccc(Cl)c(Cl)c2)c2ccccc21.Cl (centres unmarked) [MMV000248]

Found:
1. 10.82
2. 6.48
3. 1.62
4. 2.33
5. 5.23

---

- System: HepG2
- Protocol: Hepatocyte toxicity
- Assay type: cell-based, human
- Experimental Context: HepG2
Recorded Endpoint: Hepatocyte Toxicity

# annotated cases, reported Hepatocyte Toxicity shown
Lookup: I'd like to know its Hepatocyte Toxicity. The compound in question is CCCN(CCC)CC(O)COc1ccccc1C(=O)Nc1ccccc1 (stereo not drawn)
Found: > 5 µM

Lookup: I'd like to know its Hepatocyte Toxicity. The compound in question is COc1ccc(C(=O)C2CC2c2ccc(Cl)cc2)cc1 (stereo not drawn)
Found: > 5 µM

Continuing:
Lookup: I'd like to know its Hepatocyte Toxicity. The compound in question is Nc1ncc(-c2cn[nH]c2)cc1-c1nc2ccc(F)cc2[nH]1
Found: 4.228 µM

---

- Tested on: TM90C2A (DHFR, folate pathway; compared with 3D7)
- Protocol: Cross-resistance EC50 assay, TM90C2A
- Type: cell-based
- Experimental Context: Plasmodium falciparum, 48 h, read-out: TM90C2A (3D7 Parent) Average EC50
- Protocol: To evaluate potential overlapping activity against known antimalarial drug targets, we performed dose-response studies with each compound against our assembled set of drug-resistant lines and their corresponding parents, in an asexual blood stage proliferation assay (Table 1). […] The 48-h assay was carried out in a 96-well format following standard methods using the ^3H-hypoxanthine incorporation assay. […] Radioactivity was measured using a microbeta counter. […]
Assign EC50 to each entry below.
Answers are plain numbers, in nM.

# annotated cases, reported EC50 shown
Lookup: Identify the measured EC50 of Nc1ccc(-c2nc3cc(Oc4ccc(Oc5ccc6[nH]c(-c7ccc(N)cc7)nc6c5)cc4)ccc3[nH]2)cc1 for TM90C2A (DHFR, folate pathway; compared with 3D7).
Found: 356

Lookup: Identify the measured EC50 of COc1ccc(C(=O)C2CC2c2ccc(Cl)cc2)cc1 (stereo not drawn) for TM90C2A (DHFR, folate pathway; compared with 3D7).
Found: 1600

Lookup: Identify the measured EC50 of Cc1c(C)n(Cc2ccc(F)cc2)c2ccc(C(=O)NCc3ccco3)cc12 for TM90C2A (DHFR, folate pathway; compared with 3D7).
Found: 908

Below are some compounds; for each one, tell me its EC50.
1. OC(CNC1CCCCC1)Cn1c2ccccc2c2ccccc21 (stereo not drawn)
2. CC(C)c1cccc(C(NC(=O)C2Cc3ccccc3CN2C(=O)c2cccc(N3CCOCC3)c2)C2CCCC2)c1 (stereo not drawn)
3. CCC(C)NCC(O)(c1ccc(Cl)cc1)c1ccc(Cl)cc1 (stereo not drawn)
4. c1cc(-c2cnc3ccc(-c4ccc(N5CCOCC5)cc4)nn23)ccn1
5. c1cncc(-c2cc(N3CCC(CN4CCOCC4)CC3)nc(-c3ccncc3)n2)c1
6. CCN(CC)CCn1c(=N)n(CC(O)c2ccc(Cl)c(Cl)c2)c2ccccc21.Cl (stereo not drawn)

Found:
1: 537; 2: 287; 3: 432; 4: 86; 5: 86; 6: 466
